Biological target: UniProt Q2KJ64
Sequence (Q2KJ64 1-322): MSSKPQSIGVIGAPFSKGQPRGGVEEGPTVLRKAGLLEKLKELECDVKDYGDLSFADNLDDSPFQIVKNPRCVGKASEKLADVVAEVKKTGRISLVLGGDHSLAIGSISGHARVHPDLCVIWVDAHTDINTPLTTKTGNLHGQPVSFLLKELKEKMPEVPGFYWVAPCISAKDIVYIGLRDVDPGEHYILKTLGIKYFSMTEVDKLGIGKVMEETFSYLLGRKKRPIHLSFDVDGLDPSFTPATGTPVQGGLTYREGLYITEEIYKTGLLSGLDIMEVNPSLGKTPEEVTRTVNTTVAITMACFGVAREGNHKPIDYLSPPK
Here, each record is paired with measured IC50 data.
Answer format: numeric, µM implied, no suffix.

# Compound, Readout units, IC50
rows = [
    ("N=C(NO)NCC[C@H](N)C(=O)O [Nor-NOHA, N^G-hydroxy-nor-arginine, reference compound]", "µM", 230),
    ("NC(CCCCNCC(=O)O)C(=O)O (stereo not drawn)", "µM", 1060),
    ("NC(=NCCCC(N)C(=O)O)NO [NOHA, N^G-hydroxy-L-arginine, reference compound]", "µM", 340),
]

Moving on to another compound below.
# return recorded IC50 for entry N=C(NCCCC(N)C(=O)O)NCC(=O)O (stereo not drawn)
1470
